System: Ran GTPase (GTP-bound) - importin-beta complex
assay protocol: disruptors of Ran-importin-beta complex formation – biochemical, FRET, CFP-Ran, YFP-importin-beta, homogeneous, primary screen (AID 2216);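 also: 0% = DMSO wells and 100% = Ran loaded with GDP instead of GTP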
study conditions: cell-free CFP-Ran/YFP-importin-beta FRET ratio; active compounds read high; concentration not given here
The whole screen tested about 300,000 compounds, of which about 3,300 (1.1%) were called active. Inconclusive results (about 6%) are left out. The sample as a whole holds a higher share of actives than the screen did.
property: inhibition (%)
Numbers only, in %.

Example entries and their recorded answers appear below.
O=C(CSc1n[nH]c(-c2cccs2)n1)N1CCCCC1    -0.392
NC(=O)CSc1nnc(NC(=O)c2ccc3ccccc3c2)s1    5.81
CCOc1ccc(N2CC(C(=O)NCc3ccccn3)CC2=O)cc1 (stereo unspecified)    -1.93
COc1ccc(Cc2nnc(NC(=O)c3cc(OC)c(OC)c(OC)c3)s2)cc1OC    3.23
Cc1cc(=O)oc2cc(NC(=O)C(C)Oc3ccccc3)ccc12 (stereo unspecified)    3.05

Quote inhibition reported for Brc1cnc2ccccc2c1N1CCCCC1 please.
-1.98
